# System Name: UniProtKB P09960
# Sequence (P09960 1-611): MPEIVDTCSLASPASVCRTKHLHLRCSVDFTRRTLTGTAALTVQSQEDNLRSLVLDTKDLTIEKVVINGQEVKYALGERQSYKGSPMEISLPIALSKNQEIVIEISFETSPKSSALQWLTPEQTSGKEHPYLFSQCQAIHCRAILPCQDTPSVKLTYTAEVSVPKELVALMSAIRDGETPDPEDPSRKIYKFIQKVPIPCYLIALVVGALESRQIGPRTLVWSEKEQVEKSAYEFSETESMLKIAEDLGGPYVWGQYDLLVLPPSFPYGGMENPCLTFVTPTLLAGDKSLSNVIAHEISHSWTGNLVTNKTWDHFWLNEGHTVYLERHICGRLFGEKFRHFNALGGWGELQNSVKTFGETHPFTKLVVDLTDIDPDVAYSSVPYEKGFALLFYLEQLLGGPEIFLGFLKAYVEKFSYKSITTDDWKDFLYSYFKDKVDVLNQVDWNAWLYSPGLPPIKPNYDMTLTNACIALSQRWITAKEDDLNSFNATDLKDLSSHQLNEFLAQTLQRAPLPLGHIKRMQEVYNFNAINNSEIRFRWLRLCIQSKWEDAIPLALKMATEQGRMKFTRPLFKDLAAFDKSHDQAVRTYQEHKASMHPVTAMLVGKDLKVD
Listed below: pIC50 values for each entry.
Please keep in mind that pIC50 is minus log10 of the molar concentration; only the number is needed.

Solved entries:
{"Compound": "NC(CO)Cc1nnn(-c2ccc(Oc3ncc(Cl)cc3F)cc2)n1 (racemic)", "Result Number": 8.66}
{"Compound": "N[C@H](CO)Cn1nnc(-c2ccc(Oc3ncc(-c4ncco4)cc3F)cc2)n1", "Result Number": 8.13}
{"Compound": "N[C@H](CO)Cn1ccc(-c2ccc(Oc3ncc(-c4ccn[nH]4)cc3F)cn2)n1", "Result Number": 8.51}
{"Compound": "N[C@H](CO)Cc1nnn(-c2ccc(Oc3ncc(-c4ccn[nH]4)cc3F)cc2)n1", "Result Number": 8.59}

// switching to the query compound
(Q) Give UniProtKB P09960 pIC50 for N[C@H](CO)Cn1ccc(-c2ccc(Oc3ccc(-c4ccn[nH]4)cn3)cc2)n1
(A) 8.54

---

# Tested on: LTB4 biosynthesis in human whole blood
# Protocol Notes: Human whole blood assay (hWB), inhibition of LTB4 biosynthesis
# Assay type: cell-based
# Reported Conditions: human blood diluted 1:3, 4 hours with compound, 10 μg/ml A23187 for 15 min, eicosanoid by ELISA; read-out: hWB IC50
pIC50: −log10 of the molar value.
Rule: pIC50 of 7 or more gives met; anything lower gives not met.

{"Chemical Smiles": "N[C@H](CO)Cn1nnc(-c2ccc(Oc3ccc(Br)cn3)cc2)n1", "System Name": "LTB4 biosynthesis in human whole blood", "Class Assignment": "not met"}
{"Chemical Smiles": "N[C@H](CO)Cc1nc(-c2ccc(Oc3ccc(-c4ccn[nH]4)cn3)cc2)no1", "System Name": "LTB4 biosynthesis in human whole blood", "Class Assignment": "met"}

For the next question, use this compound.
(Q) Kindly determine if pIC50 recorded for N[C@H](CO)Cc1nc(-c2cccc([C@@H]3COc4cccnc4O3)c2)no1 is above or exactly 7.
(A) met

---

# Tested on: LTB4 biosynthesis in human whole blood
# Protocol Notes: Human whole blood assay (hWB), inhibition of LTB4 biosynthesis
# Format: cell-based
# Reported Conditions: human blood diluted 1:3, 4 hours with compound, 10 μg/ml A23187 for 15 min, eicosanoid by ELISA; read-out: hWB IC50
Listed below: pIC50 values for each entry.
Please keep in mind that pIC50 is minus log10 of the molar concentration; only the number is needed.

Solved entries:
{"Compound": "N[C@H](CO)Cn1nnc(-c2ccc(Oc3ncc(Cl)cc3F)cc2)n1 [Example 29]", "Result Number": 6.79}
{"Compound": "CC(O)[C@@H](N)Cc1nc(-c2ccc(Oc3ncc(Br)cc3F)cc2)no1 (mixture of isomers) [Example 18]", "Result Number": 6.46}
{"Compound": "N[C@H](CO)Cn1nnc(-c2ccc(Oc3ccc(Cl)cn3)cc2)n1 [Example 34]", "Result Number": 6.10}
{"Compound": "N[C@H](CO)Cn1ccc(-c2ccc(Oc3ncc(Cl)cc3F)cn2)n1 [Example 23]", "Result Number": 6.12}
{"Compound": "N[C@H](CO)Cc1nnn(-c2ccc(Oc3ncc(-c4ccn[nH]4)cc3F)cc2)n1 [Example 40]", "Result Number": 7.21}

(Q) Give the measured pIC50 of N[C@H](CO)Cc1nc(-c2cccc(Oc3ccc(-c4ccn[nH]4)cn3)c2)no1 [Example 09] .
(A) 7.13

(Q) Give the measured pIC50 of N[C@H](CO)Cc1nc(-c2ccc(Oc3ccc(Cl)cn3)cc2)no1 [Example 16] .
(A) 6.64

(Q) Give the measured pIC50 of N[C@H](CO)Cc1noc(-c2ccc(Oc3ccc(Cl)cn3)cc2)n1 [Example 06] .
(A) 6.29

(Q) Give the measured pIC50 of C[C@H](Cc1ccccc1)Oc1ccc(-c2noc(C[C@H](N)CO)n2)cc1 [Example 17] .
(A) 6.53

Source of measurements: patent US11932630B2
